Reported perc_min_measured values for the following compounds.
- Subject Of Test: SARS-CoV-2 nsp3-mac1 (Severe acute respiratory syndrome coronavirus 2)
- Procedure Summary: biochemical
- Experimental Parameters: TR-FRET dose response, lowest measured response
Please give a number only; it is taken to be in %.

The compound listed as "O=C(c1cccc(Br)c1)N1CCC(c2ccn3ncc(C(=O)N4CCCCC4)c3c2)CC1" shows perc_min_measured equal to -0.981

The compound listed as "OC[C@@H](Nc1ncnc2[nH]c(I)cc12)c1ccccc1" shows perc_min_measured equal to -3.652

The compound listed as "O=C(OCc1cccc(Cl)n1)c1ncnc2[nH]ccc12" shows perc_min_measured equal to -4.676

The compound listed as O=C(Nc1ccccc1)Nc1ccc(C(=O)NC2c3cccc(O)c3CC2C(=O)O)cc1 (centres unmarked) shows perc_min_measured equal to -1.931

The compound listed as "O=C(NCc1cc2n(n1)CCCC2)c1cc2cncnc2[nH]1" shows perc_min_measured equal to -11.392
